- Test system: RAW-Dual (murine macrophage reporter line)
- assay-name: IRF reporter (Lucia luciferase) activity fold change vs agonist alone; higher = enhanced IRF activity
- condition-details: modulator concentration 10 µM; agonist: LPS 0.1 ug/mL
recorded-endpoint: IRF reporter
I'd appreciate a reply containing only the number, no unit.

Illustrative cases are given below, each with its answer.
* CC[C@@H]1C(=O)N(C)c2cnc(Nc3ccc(C(=O)N[C@H]4CC[C@H](N5CCN(CC6CC6)CC5)CC4)cc3OC)nc2N1C(C)C | 0.0624
* CCC(C)C(=O)OC1CCC=C2C=CC(C)C(CCC3CC(O)CC(=O)O3)C21 (stereo unspecified) | 1.24
* COc1ccc2c(Cl)c(C(=O)N3CCc4ccccc4C3)sc2c1 | 1.38
* O=c1cc(-c2ccc(O)c(O)c2)oc2cc(O)cc(O)c12 | 0.663
* Cc1ccc(-c2cc(-c3ccccc3)nc(NN=Cc3ccc(F)cc3)n2)cc1 | 1.15
* CCCCS(=O)(=O)N[C@@H](Cc1ccc(OCCCCC2CCNCC2)cc1)C(=O)O.Cl.O | 1.14
* COS(=O)(=O)[O-].C[N+]1(C)CCC(=C(c2ccccc2)c2ccccc2)CC1 | 0.979
* Oc1ccc(C=NCc2ccccc2)cc1 | 0.999

// below: IRF reporter requested for another compound
Q. Param readout= IRF reporter; system= RAW-Dual (murine macrophage reporter line); entry= C#CC1(O)CCC2C3CCC4=Cc5oncc5CC4(C)C3CCC21C (stereo unspecified) ; returns value.
A. 1.35
